Biological target: Kappa-type opioid receptor (Cavia porcellus, UniProt P41144)
Sequence (P41144 whole entry): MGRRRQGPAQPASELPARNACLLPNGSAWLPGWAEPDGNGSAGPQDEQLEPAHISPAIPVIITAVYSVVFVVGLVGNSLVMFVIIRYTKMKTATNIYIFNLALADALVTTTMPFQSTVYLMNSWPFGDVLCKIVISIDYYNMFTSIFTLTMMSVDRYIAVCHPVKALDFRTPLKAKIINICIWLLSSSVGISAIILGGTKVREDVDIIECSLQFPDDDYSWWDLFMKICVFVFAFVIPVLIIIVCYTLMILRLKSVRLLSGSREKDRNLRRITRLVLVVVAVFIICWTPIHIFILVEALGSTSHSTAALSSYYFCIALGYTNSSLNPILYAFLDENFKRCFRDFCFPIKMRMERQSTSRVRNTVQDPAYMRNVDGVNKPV
Here, each record is paired with measured pKi data.
Remember, pKi is on a log scale: it is -log10 of the molar concentration.

C[C@H]1CN(CCC(=O)Nc2ccccc2)[C@@H]2Cc3ccc(O)cc3[C@]1(C)C2	6.96
C[C@H]1CN(CCC(=O)NC2CCCCC2)[C@@H]2Cc3ccc(O)cc3[C@]1(C)C2	6.30
C[C@H]1CN(CC(=O)NC2CCCCC2)[C@@H]2Cc3ccc(O)cc3[C@]1(C)C2	6.21

Pending compound:
Tell me the measured pKi of C[C@H]1CN(CCC(=O)N(C)c2ccccc2)[C@@H]2Cc3ccc(O)cc3[C@]1(C)C2 , please.
6.58

----------
Here, each record is paired with measured Ratio Ki data.
Assay: Selectivity ratio of Ki for kappa opioid receptor in guinea pig cerebella to Ki for mu opioid receptor in Sprague-Dawley rat brain
# respond with the number and nothing more

Please review the entries below; each comes with its answer.
C[C@H]1CN(CCC(=O)NC(C)(C)C)[C@@H]2Cc3ccc(O)cc3[C@]1(C)C2	1.1
C[C@H]1CN(CCC(=O)NC2CCCCC2)[C@@H]2Cc3ccc(O)cc3[C@]1(C)C2	8.9
C[C@H]1CN(CCC(=O)NCc2ccccc2)[C@@H]2Cc3ccc(O)cc3[C@]1(C)C2	2.2

Tell me the measured Ratio Ki of CCN(C(=O)CCN1C[C@H](C)[C@@]2(C)C[C@H]1Cc1ccc(O)cc12)c1ccccc1 , please.
0.51

Please do the same for C[C@H]1CN(CCC(=O)N(C)c2ccccc2)[C@@H]2Cc3ccc(O)cc3[C@]1(C)C2 as well.
4

Please do the same for C[C@H]1CN(CCC(=O)NCC2CCCCC2)[C@@H]2Cc3ccc(O)cc3[C@]1(C)C2 as well.
1.2

Please do the same for C[C@H]1CN(CCC(=O)Nc2ccccc2)[C@@H]2Cc3ccc(O)cc3[C@]1(C)C2 as well.
132

Please do the same for C[C@H]1CN(CC(=O)NC2CCCCC2)[C@@H]2Cc3ccc(O)cc3[C@]1(C)C2 as well.
0.2

Please do the same for C[C@H]1CN(CC(=O)N(C)c2ccccc2)[C@@H]2Cc3ccc(O)cc3[C@]1(C)C2 as well.
0.24

Please do the same for CCN(C(=O)CN1C[C@H](C)[C@@]2(C)C[C@H]1Cc1ccc(O)cc12)c1ccccc1 as well.
0.29

----------
Target: Delta-type opioid receptor (Rattus norvegicus, UniProt P33533)
Sequence (P33533 whole entry): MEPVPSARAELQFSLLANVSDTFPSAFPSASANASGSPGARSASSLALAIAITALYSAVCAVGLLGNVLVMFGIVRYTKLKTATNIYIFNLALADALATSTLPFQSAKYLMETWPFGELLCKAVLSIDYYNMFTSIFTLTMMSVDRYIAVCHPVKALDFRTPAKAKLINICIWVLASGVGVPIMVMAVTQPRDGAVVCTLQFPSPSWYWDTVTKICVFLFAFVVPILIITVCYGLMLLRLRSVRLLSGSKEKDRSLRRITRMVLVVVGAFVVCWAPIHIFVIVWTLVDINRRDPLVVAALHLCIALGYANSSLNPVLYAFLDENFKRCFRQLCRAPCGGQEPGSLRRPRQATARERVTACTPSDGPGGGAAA
Assay: Displacement of [3H]DPDPE from Sprague-Dawley rat delta opioid receptor by liquid scintillation counting
pKi: −log10 of the molar value.
metric: pKi

C[C@H]1CN(CC(=O)Nc2ccccc2)[C@@H]2Cc3ccc(O)cc3[C@]1(C)C2	< 5.30
C[C@H]1CN(CCC(=O)NCc2ccccc2)[C@@H]2Cc3ccc(O)cc3[C@]1(C)C2	< 5.30
C[C@H]1CN(CC(=O)N(C)c2ccccc2)[C@@H]2Cc3ccc(O)cc3[C@]1(C)C2	< 5.30
C[C@H]1CN(CCC(=O)Nc2ccccc2)[C@@H]2Cc3ccc(O)cc3[C@]1(C)C2	7.54
C[C@@H](NC(=O)[C@@H](N)Cc1ccc(O)cc1)C(=O)NCC(=O)N(C)[C@@H](Cc1ccccc1)C(=O)NCCO [DAMGO]	5.57
C[C@H]1CN(CCC(=O)NC(C)(C)C)[C@@H]2Cc3ccc(O)cc3[C@]1(C)C2	< 5.30

Pending compound:
Tell me the measured pKi of CCN(C(=O)CN1C[C@H](C)[C@@]2(C)C[C@H]1Cc1ccc(O)cc12)c1ccccc1 , please.
< 5.30

----------
Target: Mu-type opioid receptor (Homo sapiens)
Sequence (P35372 whole entry): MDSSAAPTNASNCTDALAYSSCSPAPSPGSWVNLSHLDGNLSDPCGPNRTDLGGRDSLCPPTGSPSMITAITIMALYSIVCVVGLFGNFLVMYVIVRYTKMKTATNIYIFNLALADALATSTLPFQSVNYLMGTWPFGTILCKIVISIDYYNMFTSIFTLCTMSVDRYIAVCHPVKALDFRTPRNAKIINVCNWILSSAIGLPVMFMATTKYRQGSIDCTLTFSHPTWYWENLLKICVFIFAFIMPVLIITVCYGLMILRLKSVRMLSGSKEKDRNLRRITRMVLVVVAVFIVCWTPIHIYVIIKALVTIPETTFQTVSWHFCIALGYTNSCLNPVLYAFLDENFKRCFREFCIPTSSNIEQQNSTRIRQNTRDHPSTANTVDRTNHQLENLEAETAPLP
Assay: Agonist activity at mu opioid expressed in HEK293 cells assessed as inhibition of forskolin-stimulated cAMP accumulation
metric: IC50 (nM)
Quick note: give the figure in nM, leave out the unit.

What is its IC50 for Mu-type opioid receptor (Homo sapiens)? Entry: C[C@H]1CN(CCC(=O)Nc2ccccc2)[C@@H]2Cc3ccc(O)cc3[C@]1(C)C2
4.8

----------
Species: Rattus norvegicus
Assay: Selectivity ratio of Ki for delta opioid receptor in Sprague-Dawley rat brain to Ki for mu opioid receptor in Sprague-Dawley rat brain
Here, each record is paired with measured Ratio Ki data.

Please review the entries below; each comes with its answer.
CCN(C(=O)CN1C[C@H](C)[C@@]2(C)C[C@H]1Cc1ccc(O)cc12)c1ccccc1	> 4.4
C[C@H]1CN(CC(=O)N(C)c2ccccc2)[C@@H]2Cc3ccc(O)cc3[C@]1(C)C2	> 3.6
C[C@H]1CN(CCC(=O)Nc2ccccc2)[C@@H]2Cc3ccc(O)cc3[C@]1(C)C2	33.8
C[C@H]1CN(CC(=O)NC2CCCCC2)[C@@H]2Cc3ccc(O)cc3[C@]1(C)C2	> 1.7
C[C@H]1CN(CCC(=O)N(C)c2ccccc2)[C@@H]2Cc3ccc(O)cc3[C@]1(C)C2	> 76.9

Pending compound:
Tell me the measured Ratio Ki of C[C@H]1CN(CCC(=O)NC(C)(C)C)[C@@H]2Cc3ccc(O)cc3[C@]1(C)C2 , please.
> 13.4

----------
Here's what we have: Ki numbers for Kappa-type opioid receptor (Cavia porcellus).

C[C@H]1CN(CCC(=O)NCC2CCCCC2)[C@@H]2Cc3ccc(O)cc3[C@]1(C)C2	134 nM
C[C@@H](NC(=O)[C@@H](N)Cc1ccc(O)cc1)C(=O)NCC(=O)N(C)[C@@H](Cc1ccccc1)C(=O)NCCO [DAMGO]	> 5000 nM
C[C@H]1CN(CCC(=O)NCc2ccccc2)[C@@H]2Cc3ccc(O)cc3[C@]1(C)C2	237 nM

Pending compound:
Tell me the measured Ki of C[C@H]1CN(CCC(=O)NC(C)(C)C)[C@@H]2Cc3ccc(O)cc3[C@]1(C)C2 , please.
422 nM

----------
Biological target: Mu-type opioid receptor (Rattus norvegicus)
Sequence (P33535 whole entry): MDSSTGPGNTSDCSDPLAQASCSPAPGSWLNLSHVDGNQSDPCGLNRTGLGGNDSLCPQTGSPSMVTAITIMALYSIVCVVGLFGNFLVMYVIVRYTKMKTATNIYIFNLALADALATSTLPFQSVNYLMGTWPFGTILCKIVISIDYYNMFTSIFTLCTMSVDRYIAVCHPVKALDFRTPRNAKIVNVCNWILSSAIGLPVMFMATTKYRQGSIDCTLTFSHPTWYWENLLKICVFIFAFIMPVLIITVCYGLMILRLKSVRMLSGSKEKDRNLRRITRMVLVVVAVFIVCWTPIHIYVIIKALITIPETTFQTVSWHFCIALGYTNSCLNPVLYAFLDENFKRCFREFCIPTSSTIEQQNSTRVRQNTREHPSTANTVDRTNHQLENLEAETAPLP
metric: pKi
Remember, pKi is on a log scale: it is -log10 of the molar concentration.

Please review the entries below; each comes with its answer.
C[C@H]1CN(CC(=O)NC2CCCCC2)[C@@H]2Cc3ccc(O)cc3[C@]1(C)C2	5.53
C[C@H]1CN(CCC(=O)NCC2CCCCC2)[C@@H]2Cc3ccc(O)cc3[C@]1(C)C2	6.97
C[C@H]1CN(CCC(=O)Nc2ccccc2)[C@@H]2Cc3ccc(O)cc3[C@]1(C)C2	9.08
CCN(C(=O)CCN1C[C@H](C)[C@@]2(C)C[C@H]1Cc1ccc(O)cc12)c1ccccc1	6.87

Tell me the measured pKi of C[C@H]1CN(CCC(=O)NC(C)(C)C)[C@@H]2Cc3ccc(O)cc3[C@]1(C)C2 , please.
6.43

Please do the same for C[C@H]1CN(CCC(=O)NCc2ccccc2)[C@@H]2Cc3ccc(O)cc3[C@]1(C)C2 as well.
6.98

Please do the same for C[C@H]1CN(CCC(=O)N(C)c2ccccc2)[C@@H]2Cc3ccc(O)cc3[C@]1(C)C2 as well.
7.19

Please do the same for C[C@H]1CN(CC(=O)N(C)c2ccccc2)[C@@H]2Cc3ccc(O)cc3[C@]1(C)C2 as well.
5.86

Please do the same for C[C@H]1CN(CC(=O)Nc2ccccc2)[C@@H]2Cc3ccc(O)cc3[C@]1(C)C2 as well.
6.14

Please do the same for C[C@H]1CN(CCC(=O)NC2CCCCC2)[C@@H]2Cc3ccc(O)cc3[C@]1(C)C2 as well.
7.25

Please do the same for CCN(C(=O)CN1C[C@H](C)[C@@]2(C)C[C@H]1Cc1ccc(O)cc12)c1ccccc1 as well.
5.95

----------
Here's what we have: pKi numbers for Kappa-type opioid receptor (Cavia porcellus, UniProt P41144).
Remember, pKi is on a log scale: it is -log10 of the molar concentration.

CCN(C(=O)CN1C[C@H](C)[C@@]2(C)C[C@H]1Cc1ccc(O)cc12)c1ccccc1	6.47
C[C@H]1CN(CC(=O)N(C)c2ccccc2)[C@@H]2Cc3ccc(O)cc3[C@]1(C)C2	6.47

Pending molecule:
Tell me the measured pKi of CCN(C(=O)CCN1C[C@H](C)[C@@]2(C)C[C@H]1Cc1ccc(O)cc12)c1ccccc1 , please.
7.15

----------
Organism: Rattus norvegicus
Assay: Selectivity ratio of Ki for delta opioid receptor in Sprague-Dawley rat brain to Ki for mu opioid receptor in Sprague-Dawley rat brain
metric: Ratio Ki

C[C@H]1CN(CC(=O)Nc2ccccc2)[C@@H]2Cc3ccc(O)cc3[C@]1(C)C2	> 6.9
C[C@H]1CN(CCC(=O)NCC2CCCCC2)[C@@H]2Cc3ccc(O)cc3[C@]1(C)C2	> 46.7
CCN(C(=O)CCN1C[C@H](C)[C@@]2(C)C[C@H]1Cc1ccc(O)cc12)c1ccccc1	> 36.7
C[C@H]1CN(CCC(=O)NC2CCCCC2)[C@@H]2Cc3ccc(O)cc3[C@]1(C)C2	> 89.2

Pending compound:
Tell me the measured Ratio Ki of C[C@H]1CN(CCC(=O)NCc2ccccc2)[C@@H]2Cc3ccc(O)cc3[C@]1(C)C2 , please.
> 47.6
